Assay: activity coefficient (dimensionless); of the first substance listed, at infinite dilution; xn = mol fraction of the nth substance listed
Conditions: 368.15 K; 101.33 kPa; Liquid; Chromatography; x1 = 0
// values below are reported activity coefficient
Returns: the value as a bare number; no unit string appended.

| COMPOUND | RESULT_VALUE |
| --- | --- |
| CCO [ethanol] + CCCCCCCCCCCCn1cc[n+](C)c1.O=S(=O)([N-]S(=O)(=O)C(F)(F)F)C(F)(F)F | 1.06 |
| CCOC(C)=O [ethyl acetate] + CCCCCCCCCCCCn1cc[n+](C)c1.O=S(=O)([N-]S(=O)(=O)C(F)(F)F)C(F)(F)F | 0.67 |
| C=CCCCCCC [oct-1-ene] + CCCCCCCCCCCCn1cc[n+](C)c1.O=S(=O)([N-]S(=O)(=O)C(F)(F)F)C(F)(F)F | 3.35 |
| C1=CCCCC1 [cyclohexene] + CCCCCCCCCCCCn1cc[n+](C)c1.O=S(=O)([N-]S(=O)(=O)C(F)(F)F)C(F)(F)F | 1.71 |

Proceed to the following item.
Q. Can you look up the measured activity coefficient of CCC(C)O (stereo not given) [butan-2-ol] + CCCCCCCCCCCCn1cc[n+](C)c1.O=S(=O)([N-]S(=O)(=O)C(F)(F)F)C(F)(F)F for me?
A. 1.05

###

// values below are reported activity coefficient
Assay: activity coefficient (dimensionless); of the first substance listed, at infinite dilution; xn = mol fraction of the nth substance listed
Details: 338.15 K; 101.33 kPa; Liquid; Chromatography; x1 = 0
Returns: the value as a bare number; no unit string appended.

| COMPOUND | RESULT_VALUE |
| --- | --- |
| CCOC(C)(C)C [2-ethoxy-2-methylpropane] + CCCCCCCCCCCCn1cc[n+](C)c1.O=S(=O)([N-]S(=O)(=O)C(F)(F)F)C(F)(F)F | 1.69 |
| Cc1cccc(C)c1 [1,3-dimethylbenzene] + CCCCCCCCCCCCn1cc[n+](C)c1.O=S(=O)([N-]S(=O)(=O)C(F)(F)F)C(F)(F)F | 0.96 |

Proceed to the following item.
Q. Can you look up the measured activity coefficient of CCCOCCC [dipropyl ether] + CCCCCCCCCCCCn1cc[n+](C)c1.O=S(=O)([N-]S(=O)(=O)C(F)(F)F)C(F)(F)F for me?
A. 1.79

###

Experiment: activity coefficient (dimensionless); of the first substance listed, at infinite dilution; xn = mol fraction of the nth substance listed
Conditions: 368.15 K; 101.33 kPa; Liquid; Chromatography; x1 = 0
Hi! Could you tag entries with activity coefficient below 2 as 1 (yes), and those at or above as 0 (no)? Much appreciated.

Here's what some known entries look like.
| COMPOUND | QUALITATIVE_LABEL |
| --- | --- |
| CC(C)O [propan-2-ol] + CCCCCCCCCCCCn1cc[n+](C)c1.O=S(=O)([N-]S(=O)(=O)C(F)(F)F)C(F)(F)F | 1 (yes) |
| C1COCCO1 [1,4-dioxane] + CCCCCCCCCCCCn1cc[n+](C)c1.O=S(=O)([N-]S(=O)(=O)C(F)(F)F)C(F)(F)F | 1 (yes) |
| CC#N [acetonitrile] + CCCCCCCCCCCCn1cc[n+](C)c1.O=S(=O)([N-]S(=O)(=O)C(F)(F)F)C(F)(F)F | 1 (yes) |
| c1ccncc1 [pyridine] + CCCCCCCCCCCCn1cc[n+](C)c1.O=S(=O)([N-]S(=O)(=O)C(F)(F)F)C(F)(F)F | 1 (yes) |

Consider the additional compound presented here.
Q. In the record for C=CCCC [1-pentene] + CCCCCCCCCCCCn1cc[n+](C)c1.O=S(=O)([N-]S(=O)(=O)C(F)(F)F)C(F)(F)F , is activity coefficient less than 2?
A. 0 (no)
